Entry source: a melting point compilation (Tetko et al.; mined from patent text by program, amines drawn as free bases though some values may be those of a salt)

READOUT NAME: melting point

Previously resolved entries follow.
COMPOUND	melting point
CN(C(=O)c1ccccc1NC(=O)CN1C(=O)c2ccccc2C1=O)c1ccccc1	138 °C
O=c1cc(-c2ccccc2)[nH]c(=S)[nH]1	266 to 267 °C
Cc1cc([N+](=O)[O-])ccc1N=C1C2CC3CC(C2)CC(C3)N1CC(C)C	101 to 102 °C
CS(=O)(=O)Nc1ccc(OCCCN2C(=O)c3ccccc3C2=O)cc1	176 to 178 °C
COCCOc1ccc(CCCOc2cc(CCC(=O)O)n(-c3ccccc3)n2)c(Oc2ncc(C(F)(F)F)cc2Cl)c1	128 to 129 °C

Data request: State its melting point: CC(C)[C@H](CO)Cc1ccc(C(C)(C)C)cc1
Data returned: 49 to 51 °C

Data request: State its melting point: CN(C)C(=O)C1CC(=O)N(c2cc(C(F)(F)F)cc(C(F)(F)F)c2)C1 (centres undefined)
Data returned: 84.5 to 86 °C

Data request: State its melting point: CC(C)Cn1c(=O)c2nc(-c3ccc(/C=C/C(=O)O)cc3)[nH]c2n(CC(C)C)c1=O
Data returned: > 300 °C

Data request: State its melting point: O=C(O)/C=C/c1ccc(-c2nc3c(=O)n(CC4CC4)c(=O)n(CC4CC4)c3[nH]2)cc1
Data returned: > 250 °C
